Tested on: WNK4
Details: concentration: 1 μM, replicates: in singlicate; n = 1;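 also: KINOMEscan kinase panel screen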
Overview of recorded %Inh for various molecules
Remember to quote the unit after the number.

Worked examples follow.
>>> print(df.to_string())
                                   molecule  observed_result
0  Cl.Cl.NCC(NCc1ccc(-c2ccnc3[nH]ccc23)s1)c1ccccc1 (centres unmarked)               0%
1  COc1cccc(C(=O)Nc2cccc(Oc3ccc4nc(NC(=O)C5CC5)cn4n3)c2)c1               0%
2  CN1CCN(Cc2cccc(-c3ccc4c(Nc5ccc(Oc6ccccc6)cc5)ccnc4c3)c2)CC1              49%
3  Fc1ccc(-c2ncn(C3CCNCC3)c2-c2ccnc(Oc3ccc(-c4ccccc4)cc3)n2)cc1               0%
4  O=C(O)C(F)(F)F.O=C(O)C(F)(F)F.O=c1[nH]ccc2nc(N[C@@H]3CCCNC3)nc(Nc3ccc(S(=O)(=O)N4CCOCC4)cc3)c12               0%

Inquiry: // query %Inh value for entry CCn1c(-c2nonc2N)nc2c(C#CC(C)(C)O)nc(OC[C@H](N)c3ccccc3)cc21
Reply text: 31%

Inquiry: // next record Oc1cc(Nc2ccnc3cc(I)ccc23)ccc1F
Reply text: 35%

Inquiry: Then what about the molecule COc1ccc(-c2coc3ccc(-c4nnc(SCc5ccc(OC)c(C(F)(F)F)c5)o4)cc23)cc1 ?
Reply text: 4%

Inquiry: How about this molecule: CN(c1ccc(NC(=O)Nc2cc(C(F)(F)F)ccc2F)cc1)c1ccnc(Nc2ccc(S(N)(=O)=O)cc2)n1
Reply text: 0%

Inquiry: Same lookup for COc1cccc(C2=C(Nc3ccc(Cl)c(C(=O)O)c3)C(=O)NC2=O)c1 , please.
Reply text: 43%

Inquiry: Next entry: COc1cc(Nc2nccc(N3CCC(NC(=O)Nc4cccc(C(C)=O)c4)C3)n2)cc(OC)c1OC (centres unmarked)
Reply text: 41%

Inquiry: And then O=C(Nc1cccc(Oc2ccc3nc(NC(=O)C4CC4)cn3n2)c1)c1ccccc1C(F)(F)F , what is it?
Reply text: 13%

Inquiry: Also CC(C)(C)c1ccc2nccc(Nc3cccc(O)c3)c2c1 ?
Reply text: 0%

Inquiry: Okay, and O=C(Nc1cccc(-c2nn3ncccc3c2-c2ccnc(Nc3ccccc3)n2)c1)c1c(F)cccc1F ?
Reply text: 0%

====

Test system: FGFR3
Settings: concentration: 1 μM, replicates: in singlicate; n = 1
measurement-kind: %Inh (%)
Number only, in %; omit the unit.

Record excerpt, results attached:
                                  structure  measurement_kind  unit_info  observed_result
0  CCCCc1nn2ncccc2c1-c1ccnc(Nc2ccc(N3CCN(C)CC3)cc2)n1              %Inh          %               89
1  C[C@@H](Oc1cc(-n2cnc3cc(-c4ccnc(NCCS(C)(=O)=O)c4)ccc32)sc1C(N)=O)c1ccccc1Cl              %Inh          %               81
2  CN(c1ccc(NC(=O)Nc2cc(C(F)(F)F)ccc2F)cc1)c1ccnc(Nc2ccc(S(N)(=O)=O)cc2)n1              %Inh          %               22

Inquiry: Looking for the measured %Inh of COc1cccc(-c2ccc3c(NC(=O)C4CC4)n[nH]c3n2)c1 , can you help?
Reply text: 0

====

Tested on: ACVR2A
Settings: concentration: 1 μM, replicates: in singlicate; n = 1
Listed here: items and their measured %Inh.
Lab book: enter the figure in %, no units written.

Observe how each entry below is paired with its result.
In [3]: df
Out[3]:
                                   compound  measurement_kind  observed_result
0  Nc1ncc(-c2cccnc2)c2scc(-c3ccc4c(c3)CCN4C(=O)Cc3ccccc3)c12              %Inh                0
1  Cl.NC(=O)c1cccc(Nc2nccc(Nc3ccc(Oc4c(Cl)cccc4Cl)c(Cl)c3)n2)c1              %Inh                0

Inquiry: Reported %Inh, compound Clc1ccc(-c2nn3ncccc3c2-c2ccnc(Nc3ccc4c(c3)OCCO4)n2)cc1 : ____
Reply text: 14

Inquiry: Follow-up entry: O=C(O)C(F)(F)F.O=C(O)C(F)(F)F.O=c1[nH]ccc2nc(N[C@@H]3CCCNC3)nc(Nc3ccc(S(=O)(=O)N4CCOCC4)cc3)c12
Reply text: 29

Inquiry: Continue with Cc1ccc(C)c(NC(=O)NC2CCN(c3ccnc(Nc4ccc(F)cc4)n3)C2)c1 (stereo not shown)
Reply text: 0

Inquiry: Likewise for CN(c1ccc(NC(=O)Nc2cc(C(F)(F)F)ccc2F)cc1)c1ccnc(Nc2ccc(S(N)(=O)=O)cc2)n1 ?
Reply text: 0

Inquiry: Try the compound CN1CCN(CCCNc2nccc(-c3c(-c4ccc(F)cc4)nn4cc(C(F)(F)F)ccc34)n2)CC1
Reply text: 0

====

Tested on: STK35
Details: concentration: 1 μM, replicates: in singlicate; n = 1
measurement-kind: %Inh (%)
Give just the number in %; leave the unit off.

In [3]: df
Out[3]:
                                   molecule  observed_result
0  Cl.Cl.NCC(NCc1ccc(-c2ccnc3[nH]ccc23)s1)c1ccccc1 (stereo not drawn)                0
1  O=C(Nc1n[nH]c2nc(-c3ccc(O)cc3)ccc12)C1CC1                0
2  O=C(Nc1cccc(-c2nn3ccccc3c2-c2ccnc(Nc3cccc(C(F)(F)F)c3)n2)c1)c1c(F)cccc1F               20
3              Nc1n[nH]c2cnc(-c3ccccc3)cc12                0
4  CN(c1ccc(NC(=O)Nc2cc(C(F)(F)F)ccc2F)cc1)c1ccnc(Nc2ccc(S(N)(=O)=O)cc2)n1               10

Inquiry: Tell me reported %Inh for COc1cc(Nc2nccc(-c3c(-c4cccc(NC(=O)c5c(F)cccc5F)c4)nn4ccccc34)n2)cc(OC)c1OC , tested with STK35.
Reply text: 0

Inquiry: Please do the same for CC(C)(C)c1ccc2nccc(Nc3cccc(O)c3)c2c1 as well.
Reply text: 0

Inquiry: Try the molecule COc1ccc(Nc2nccc(N3CCC(NC(=O)Nc4cccc(OC)c4)C3)n2)cc1 (stereo not drawn)
Reply text: 2

Inquiry: Please do the same for COCCOCCOc1cc2ncc3c4ccc(C#N)cc4[nH]c3c2cc1OC as well.
Reply text: 18

====

Test system: MLCK
Construct: gene MYLK3
Conditions: concentration: 1 μM, replicates: in singlicate; n = 1
%Inh strictly less than 4% = 1.0. Otherwise 0.0.

>>> df
                                   molecule  discrete_label
0  CN(C)S(=O)(=O)c1cc(-c2ccc3nccc(-c4cccc(S(N)(=O)=O)c4)c3c2)cnc1N [GSK1669921]             1.0
1  COc1ccc(Nc2nccc(N3CCC(NC(=O)Nc4cccc(OC)c4)C3)n2)cc1 (centres unmarked) [GSK1379742]             1.0
2  Fc1ccc(-c2ncn(C3CCNCC3)c2-c2ccnc(Oc3ccc(-c4ccccc4)cc3)n2)cc1 [SB-245391]             1.0

Inquiry: Please let me know if C[C@@H](Oc1cc(-n2cnc3cc(-c4ccnc(NCCS(C)(=O)=O)c4)ccc32)sc1C(N)=O)c1ccccc1Cl [GSK907232] shows %Inh below 4%.
Reply text: 1.0

Inquiry: Query CCc1ccc(-c2ccc3c(c2)-c2c(cnn2C)S(=O)(=O)N3C)cc1 next
Reply text: 1.0

Inquiry: Try the molecule NCCCC(NC(=O)c1cc(Br)c(-c2ccnc3[nH]ccc23)s1)c1ccccc1.O=C(O)C(F)(F)F.O=C(O)C(F)(F)F (centres unmarked) [GSK1287544]
Reply text: 0.0

====

Measured %Inh accompanies every entry in the list below.
System: PRKD1
Settings: concentration: 1 μM, replicates: in singlicate; n = 1
Value expressed in %; do not type the unit.

Would you please look over these solved cases?
>>> df
                                   compound  observed_result
0  COC(=O)Nc1nc2ccc(Oc3ccc(NC(=O)Nc4cc(C(F)(F)F)ccc4F)cc3)cc2n1C.Cl [GW692089]                0
1  CCc1ccc(-c2ccc3c(c2)-c2c(cnn2C)S(=O)(=O)N3C)cc1                0
2  Cc1ccc(C)c(NC(=O)NC2CCN(c3ccnc(Nc4ccc(F)cc4)n3)C2)c1 (stereo not drawn) [GSK1379720]                0
3  O=C(Nc1cccc(Oc2ccc3nc(NC(=O)C4CC4)cn3n2)c1)c1ccccc1C(F)(F)F                0
4        c1ccc(-c2cnc3nccnn23)cc1 [AH20685]                0

Inquiry: I have this compound here, NCCCC(NC(=O)c1cc(Br)c(-c2ccnc3[nH]ccc23)s1)c1ccccc1.O=C(O)C(F)(F)F.O=C(O)C(F)(F)F (stereo not drawn) [GSK1287544] , and I need its recorded %Inh.
Reply text: 29
